Test system: A549-TUBA1B-RELA
Assay Explanation: phenotypically active (imaging signature differs from DMSO and reproducible) at any of 0.3-9 uM (binary (1 = active, 0 = inactive)); higher = active
Run Conditions: treatment time: 24 h
Structures can show the parent of a compound that is named as a salt.
Listed here are compounds together with their documented phenotypically active.
Reply with just the number.

Solved entries (count: 5):
{"Compound": "Cc1nc(=O)c2c([nH]1)CCSC2", "Assay Metric": "phenotypically active", "Observed Result": 0}
{"Compound": "Oc1cccc(-c2nc(N3CCOCC3)c3oc4ncccc4c3n2)c1 [PI 103 hydrochloride]", "Assay Metric": "phenotypically active", "Observed Result": 1}
{"Compound": "CN(C(=O)CCCOc1ccc2[nH]c(=O)ccc2c1)C1CCCCC1 [Cilostamide]", "Assay Metric": "phenotypically active", "Observed Result": 0}
{"Compound": "Cc1c(-c2ccccc2)oc2c(C(=O)OCCN3CCCCC3)cccc2c1=O [flavoxate]", "Assay Metric": "phenotypically active", "Observed Result": 0}
{"Compound": "Cc1c(O)cccc1C(=O)N[C@@H](CSc1ccccc1)[C@H](O)CN1C[C@H]2CCCC[C@H]2C[C@H]1C(=O)NC(C)(C)C", "Assay Metric": "phenotypically active", "Observed Result": 1}

Q. Identify phenotypically active associated with the compound COc1ccc(S(=O)(=O)N(C(C)=O)c2ccccc2/C=C/c2cc[n+]([O-])cc2)cc1
A. 1

Q. Identify phenotypically active associated with the compound O=C(/C=C/N1C[C@H]2C[C@@H]1CN2c1ccccn1)c1ccccc1O
A. 0
